The reported measurements were obtained from paper PMC4336329.

System Tested: human ether-à-go-go-related gene (hERG) potassium channel (human);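 note: peak tail current of the secondary pulse compared with the same well before compound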
Sequence (Q12809 whole entry, looked up): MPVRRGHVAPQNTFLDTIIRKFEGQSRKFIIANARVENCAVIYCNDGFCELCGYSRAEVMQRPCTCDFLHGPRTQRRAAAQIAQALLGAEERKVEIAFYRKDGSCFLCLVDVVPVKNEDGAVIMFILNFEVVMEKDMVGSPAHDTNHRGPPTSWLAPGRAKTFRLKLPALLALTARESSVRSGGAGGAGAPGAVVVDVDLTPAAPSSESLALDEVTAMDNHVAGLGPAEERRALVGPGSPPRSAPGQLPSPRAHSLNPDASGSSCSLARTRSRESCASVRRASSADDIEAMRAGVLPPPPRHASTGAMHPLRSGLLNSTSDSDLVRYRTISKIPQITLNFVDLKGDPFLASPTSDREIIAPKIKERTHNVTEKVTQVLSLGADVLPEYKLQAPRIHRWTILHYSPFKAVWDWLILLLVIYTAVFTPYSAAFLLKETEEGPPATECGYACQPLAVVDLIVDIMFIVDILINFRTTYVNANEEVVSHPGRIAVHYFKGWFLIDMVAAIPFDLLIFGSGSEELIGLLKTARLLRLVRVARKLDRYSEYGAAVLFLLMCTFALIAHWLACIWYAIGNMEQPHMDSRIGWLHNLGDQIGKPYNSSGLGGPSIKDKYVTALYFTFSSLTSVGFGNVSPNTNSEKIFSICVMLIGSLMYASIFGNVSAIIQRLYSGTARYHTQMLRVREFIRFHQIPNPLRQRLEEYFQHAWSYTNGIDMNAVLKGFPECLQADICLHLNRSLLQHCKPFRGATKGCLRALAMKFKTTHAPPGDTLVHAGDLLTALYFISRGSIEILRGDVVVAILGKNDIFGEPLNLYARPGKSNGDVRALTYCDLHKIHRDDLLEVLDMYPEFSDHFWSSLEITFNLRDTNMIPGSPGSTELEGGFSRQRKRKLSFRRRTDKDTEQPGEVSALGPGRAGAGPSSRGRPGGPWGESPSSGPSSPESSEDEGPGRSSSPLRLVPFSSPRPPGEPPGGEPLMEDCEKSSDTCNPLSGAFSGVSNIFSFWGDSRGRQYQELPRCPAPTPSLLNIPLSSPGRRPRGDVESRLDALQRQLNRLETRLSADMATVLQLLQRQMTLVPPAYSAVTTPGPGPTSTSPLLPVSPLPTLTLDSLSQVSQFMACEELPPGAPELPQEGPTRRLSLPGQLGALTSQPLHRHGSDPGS
Assay Method Text: primary screen, population patch clamp on CHO cells stably expressing hERG; higher = less effect of the substance
In all, about 310,000 compounds went through this assay and about 14,000 (4.5%) showed an effect of 50% or more. Effects have a minus sign here. This is one part of a sample in which strong results are shown more often than they occur.
Quick list: hERG current change (%, negative = inhibition) at 10uM per entry.
All answers are understood in %, so give the number only.

Example molecules with recorded hERG current change (%, negative = inhibition) at 10uM:
- Molecule: "CS(=O)(=O)c1ccc(NCC2CCCO2)c([N+](=O)[O-])c1 (stereo not shown)"
  Reported Result: 9.48
- Molecule: "O=C(CN1CCCCC1)N=Nc1c(O)[nH]c2ccccc12"
  Reported Result: 4.68
- Molecule: "O=C(N/N=C/c1c(O)n(-c2ccccc2)c(=O)[nH]c1=O)c1ccncc1"
  Reported Result: 16.2
- Molecule: "COc1cc2c(cc1OC)C(C)N(C(=O)Nc1cc(C)cc(C)c1)CC2 (stereo not shown)"
  Reported Result: 4.95
- Molecule: "O=C(CSCc1ccccc1)N=Nc1c(O)[nH]c2ccccc12"
  Reported Result: -19.1
- Molecule: "CCc1ccc(-c2nc(CN3CCC(C(=O)N4CCN(c5ccccn5)CC4)CC3)c(C)o2)cc1"
  Reported Result: -68.5
- Molecule: "CCCCN(CC)CCNC(=O)c1nn(-c2ccc(OC)cc2)c(=O)c2c1c1ccccc1n2C"
  Reported Result: 0.748
- Molecule: "O=C(CSC1=NCCS1)Nc1ccnc2ccccc12"
  Reported Result: -5.91

Problem: For the record O=C(Cc1cccs1)N=Nc1c(O)[nH]c2ccccc12 , what value of hERG current change (%, negative = inhibition) at 10uM is listed for human ether-à-go-go-related gene (hERG) potassium channel (human)?
Solution: 7.07

Problem: Notebook entry, human ether-à-go-go-related gene (hERG) potassium channel (human) assay: hERG current change (%, negative = inhibition) at 10uM of CC(=O)N1CCN(c2ccc(N=Cc3c(O)n(-c4ccc(Cl)cc4)c(=O)[nH]c3=O)cc2)CC1 = ?
Solution: 1.55
